Just for reference, patent US20240010640A1 is where these values come from.

- test.target: Human M4 (Homo sapiens)
- Construct: Human or rat M4 cDNA, along with the chimeric G protein Gqi5, were transfected into Chinese hamster ovary (CHO-K1) cells
- assay.text: mAChR M4 cell-based functional assay (calcium flux, antagonist mode)
- settings: Human M4/Gqi5 CHO-K1 cells; decrease of acetylcholine response
pIC50: −log10 of the molar value.
observable: pIC50

Return reported pIC50; argument: Cn1cc(-c2ccc(N[C@H]3C[C@@H]4CN(CC5CCCCC5)C[C@@H]4C3)nn2)ccc1=O 8.46

Fill in the blank: the reported pIC50 of Cn1cc(-c2ccc(N[C@H]3C[C@@H]4CN(CC5CCCOC5)C[C@@H]4C3)nn2)ccc1=O (some centres unmarked) is ____. 6.89

Consider the compound Cc1cc(-c2ccc(N[C@H]3C[C@@H]4CN(CC5CCOCC5)C[C@@H]4C3)nn2)c(=O)[nH]n1 and give its measured pIC50. 6.87

Quick check: pIC50 of Cn1cc(-c2ccc(N[C@H]3C[C@@H]4CN(CC5CCOCC5)C[C@@H]4C3)nn2)cnc1=O ? 6.29

Find the recorded pIC50 belonging to Cc1cc(-c2ccc(N[C@H]3C[C@@H]4CN(CC5CCOCC5)C[C@@H]4C3)nn2)cn(C)c1=O and report it. 8.72

If you can, please state the reported pIC50 value of Cn1cc(-c2ccc(N[C@H]3C[C@@H]4CN(CCC(C)(C)C)C[C@@H]4C3)nn2)ccc1=O . 9.00

Which pIC50 reading was recorded for the compound [2H]C([2H])(C1CCOCC1)N1C[C@H]2C[C@H](Nc3ccc(-c4cccn(C)c4=O)nn3)C[C@H]2C1 ? 8.23

Fill in the blank: the reported pIC50 of [2H]C([2H])(C1CCOCC1)N1C[C@H]2C[C@H](Nc3ccc(-c4ccc(=O)n(CC5CC5)c4)nn3)C[C@H]2C1 is ____. 7.54

1. Cn1cc(C(F)(F)F)cc(-c2ccc(N[C@H]3C[C@@H]4CN(CC5CCOCC5)C[C@@H]4C3)nn2)c1=O
2. [2H]C([2H])(C1CCOCC1)N1C[C@H]2C[C@H](Nc3ccc(-c4ccn(C)c(=O)c4)nn3)C[C@H]2C1
3. Cn1cccc(-c2cnc(N[C@H]3C[C@@H]4CN(CC5CCOCC5)C[C@@H]4C3)nc2)c1=O
4. [2H]C([2H])(C1CCOCC1)N1C[C@H]2C[C@H](Nc3ccc(-c4cc(F)c(=O)n(C)c4)nn3)C[C@H]2C1
5. Cn1cc(-c2ccc(N[C@H]3C[C@@H]4CN(Cc5ccccn5)C[C@@H]4C3)nn2)ccc1=O
Rank entries according to their pIC50, from the largest number down. Provide the labels, sequenced as the question asks. 4, 1, 2, 5, 3
(4: 7.94, 1: 7.56, 2: 7.09, 5: 6.12, 3: 5.47)

###

- test.target: Human M4 (Homo sapiens, UniProt P08173)
- Construct: Human or rat M4 cDNA, along with the chimeric G protein Gqi5, were transfected into Chinese hamster ovary (CHO-K1) cells
- Sequence (P08173 whole entry): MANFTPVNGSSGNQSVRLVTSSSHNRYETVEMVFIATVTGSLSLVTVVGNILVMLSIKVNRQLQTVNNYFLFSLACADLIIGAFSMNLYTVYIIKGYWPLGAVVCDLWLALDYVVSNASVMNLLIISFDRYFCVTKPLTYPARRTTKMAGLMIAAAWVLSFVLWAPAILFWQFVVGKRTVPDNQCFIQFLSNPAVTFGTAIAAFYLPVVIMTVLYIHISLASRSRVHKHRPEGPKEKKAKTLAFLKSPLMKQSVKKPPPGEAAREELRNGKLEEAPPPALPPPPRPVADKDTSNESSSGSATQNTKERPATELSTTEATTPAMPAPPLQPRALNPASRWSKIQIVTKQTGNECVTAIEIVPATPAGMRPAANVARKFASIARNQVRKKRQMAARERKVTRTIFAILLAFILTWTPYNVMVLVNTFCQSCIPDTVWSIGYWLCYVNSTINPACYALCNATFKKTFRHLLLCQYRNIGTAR
- assay.text: mAChR M4 cell-based functional assay (calcium flux, antagonist mode)
- settings: Human M4/Gqi5 CHO-K1 cells; decrease of acetylcholine response
pIC50: −log10 of the molar value.
observable: pIC50

Here are 2 compounds together with their reported answers.
What value of measured pIC50 is listed for Cn1cc(-c2ccc(N[C@H]3C[C@@H]4CN(CC5CCOCC5)C[C@@H]4C3)nn2)cc(F)c1=O [A17] ? 7.89

If you can, please state the reported pIC50 value of O=c1ccc(-c2ccc(N[C@H]3C[C@@H]4CN(CC5CCOCC5)C[C@@H]4C3)nn2)cn1C(F)F [A5] . 8.42

P. O=c1cc(-c2ccc(N[C@H]3C[C@@H]4CN(CC5CCOCC5)C[C@@H]4C3)nn2)ccn1C(F)F [A6]
Q. Cn1cccc(-c2ccc(N[C@H]3C[C@@H]4CN(CC5CCOCC5)C[C@@H]4C3)nn2)c1=O [A4]
R. [2H]C([2H])(C1CCOCC1)N1C[C@H]2C[C@H](Nc3ccc(-c4ccc(=O)n(C)c4)nn3)C[C@H]2C1 [A2]
Provide the items ranked by increasing pIC50. Return value: ordered labels per request. R, Q, P
(R: 7.47, Q: 7.81, P: 8.23)
